# protocol_details: W/O emulsion, substantivity on skin model (water resistance, watering test)
# Format: physicochemical, sheep
# experimental_setup: amount found after 20 min watering relative to unwatered sample, isopropanol extract, GC, converted to the logarithm
experimental_endpoint: Activity (logarithmic partition parameter for substantivity on a skin model)
Would you mind answering with just the numeric figure?

Worked set:
CC(C=O)Cc1ccc(C(C)(C)C)cc1 (stereo not drawn); −0.2120
CC1CCC(C(C)C)C(OC(=O)c2ccccc2N)C1 (stereo not drawn) [Neo Heliopan ® MA, Menthyl anthranilate]; −0.2300
CCCCCC/C(C=O)=C\c1ccccc1; −0.1399

Query: Bench note: what Activity (logarithmic partition parameter for substantivity on a skin model) did CC(C)CCOC(=O)c1ccccc1O [Isoamyl salicylate] show?
Result: −0.2740

Query: Try this molecule too: CC(=O)/C=C/C1=C(C)CCCC1(C)C
Result: 0.1556

Query: Try this molecule too: Cc1ccc(C=C2C(=O)C3(C)CCC2C3(C)C)cc1 (stereo not drawn)
Result: −0.2018

* * *

# protocol_details: O/W emulsion, substantivity on skin model (water resistance, watering test)
# Format: physicochemical, sheep
# experimental_setup: amount found after 20 min watering relative to unwatered sample, isopropanol extract, GC, converted to the logarithm
Parameter: Activity (logarithmic partition parameter for substantivity on a skin model). Scope: all listed entries.
Would you mind answering with just the numeric figure?

Worked set:
COc1ccc(C(=O)CC(=O)c2ccc(C(C)(C)C)cc2)cc1; −0.1922
Cc1ccc(C=C2C(=O)C3(C)CCC2C3(C)C)cc1 (stereo not shown); −0.0966
CCCCCC/C(C=O)=C\c1ccccc1; −0.1250
O=C1CCCCCCCCCCCC(=O)OCCO1 [Ethylene brassylate]; 0.0010
COc1ccc(C=CC(=O)OCCC(C)C)cc1 [Neo Heliopan ® E1000, Isoamyl p-Methoxycinnamate]; −0.0762

Query: Bench note: what Activity (logarithmic partition parameter for substantivity on a skin model) did CC1CC(OC(=O)c2ccccc2O)CC(C)(C)C1 (stereo not shown) [Neo Heliopan ® HMS, Homosalate] show?
Result: −0.1571

Query: Try this molecule too: COc1ccc(C(=O)c2ccccc2)c(O)c1
Result: −0.1595

Query: Try this molecule too: O=C(OCc1ccccc1)c1ccccc1O [Benzyl salicylate]
Result: −0.1300

Query: Try this molecule too: CC(C=O)Cc1ccc(C(C)(C)C)cc1 (stereo not shown)
Result: −0.1280

Query: Try this molecule too: C[C@@H]1CC[C@H]2C(C)(C)[C@H]3C[C@@]12CC[C@@]3(C)O
Result: −0.0320

* * *

# protocol_details: W/O emulsion, substantivity on skin model (water resistance, watering test)
# Type: physicochemical, sheep
# experimental_setup: amount found after 20 min watering relative to unwatered sample, isopropanol extract, GC, converted to the logarithm
// classify(record): look up Activity (logarithmic partition parameter for substantivity on a skin model) in ranges low (below -0.2), middle (-0.2 to below -0.1), high (-0.1 or more)

Here's what some known entries look like.
CC(=O)/C=C/C1C(C)=CCCC1(C)C (stereo not drawn) [Ionone alpha]; high
CCCCC(CC)COC(=O)c1ccccc1O (stereo not drawn) [Neo Heliopan ® OS, 2-Ethylhexylsalicylate]; low
CC1=CCC2CC1C2(C)C (stereo not drawn) [alpha-Pinene]; low

Here's the next entry for you.
Query: Quick check: band for COc1ccc(C(=O)c2ccccc2)c(O)c1 [Neo Heliopan ® BB, Benzophenone-3]
Result: low

* * *

# protocol_details: O/W emulsion, substantivity on skin model (water resistance, watering test)
# Assay type: physicochemical, sheep
# experimental_setup: amount found after 20 min watering relative to unwatered sample, isopropanol extract, GC, converted to the logarithm
experimental_endpoint: Activity (logarithmic partition parameter for substantivity on a skin model)

Worked set:
CC(C)CCOC(=O)c1ccccc1O [Isoamyl salicylate]; −0.0960
CC1CCC(C(C)C)C(OC(=O)c2ccccc2N)C1 (stereo not shown) [Neo Heliopan ® MA, Menthyl anthranilate]; −0.1314
CC(=O)O[C@]1(C)CC[C@@]23C[C@@H]1C(C)(C)[C@@H]2CC[C@H]3C [Cedryl acetate]; −0.0330

Continue with the next molecule.
Query: Bench note: what Activity (logarithmic partition parameter for substantivity on a skin model) did CCCCC(CC)COC(=O)c1ccccc1O (stereo not shown) [Neo Heliopan ® OS, 2-Ethylhexylsalicylate] show?
Result: −0.1464

* * *

# protocol_details: W/O emulsion, substantivity on skin model (water resistance, watering test)
# Type: physicochemical, sheep
# experimental_setup: amount found after 20 min watering relative to unwatered sample, isopropanol extract, GC, converted to the logarithm
Parameter: Activity (logarithmic partition parameter for substantivity on a skin model). Scope: all listed entries.
Would you mind answering with just the numeric figure?

Worked set:
C[C@@H]1CC[C@H]2C(C)(C)[C@H]3C[C@@]12CC[C@@]3(C)O [Cedrol]; −0.0111
C=C1C2CCC(C2)C1(C)C (stereo not drawn) [Camphene]; −0.2420

Continue with the next compound.
Query: Bench note: what Activity (logarithmic partition parameter for substantivity on a skin model) did CC(=O)O[C@]1(C)CC[C@@]23C[C@@H]1C(C)(C)[C@@H]2CC[C@H]3C [Cedryl acetate] show?
Result: −0.0170

* * *

# protocol_details: W/O emulsion, substantivity on skin model (water resistance, watering test)
# Type: physicochemical, sheep
# experimental_setup: amount found after 20 min watering relative to unwatered sample, isopropanol extract, GC, converted to the logarithm
experimental_endpoint: Activity (logarithmic partition parameter for substantivity on a skin model)
Would you mind answering with just the numeric figure?

Query: Bench note: what Activity (logarithmic partition parameter for substantivity on a skin model) did COc1ccc(C(=O)CC(=O)c2ccc(C(C)(C)C)cc2)cc1 [Neo Heliopan ® NH 357] show?
Result: −0.1879

Query: Try this molecule too: O=C1CCCCCCCCCCCC(=O)OCCO1 [Ethylene brassylate]
Result: −0.0476

Query: Try this molecule too: COc1ccc(C=CC(=O)OCCC(C)C)cc1 [Neo Heliopan ® E1000, Isoamyl p-Methoxycinnamate]
Result: −0.2128

Query: Try this molecule too: O=C(OCc1ccccc1)c1ccccc1O [Benzyl salicylate]
Result: −0.1480

Query: Try this molecule too: CC1CC(OC(=O)c2ccccc2O)CC(C)(C)C1 (centres unmarked) [Neo Heliopan ® HMS, Homosalate]
Result: −0.2733
